These data points were gathered from patent US11046690B2.

System: UniProtKB Q9UBN4
Sequence (Q9UBN4 1-982 isoform Q9UBN4-5): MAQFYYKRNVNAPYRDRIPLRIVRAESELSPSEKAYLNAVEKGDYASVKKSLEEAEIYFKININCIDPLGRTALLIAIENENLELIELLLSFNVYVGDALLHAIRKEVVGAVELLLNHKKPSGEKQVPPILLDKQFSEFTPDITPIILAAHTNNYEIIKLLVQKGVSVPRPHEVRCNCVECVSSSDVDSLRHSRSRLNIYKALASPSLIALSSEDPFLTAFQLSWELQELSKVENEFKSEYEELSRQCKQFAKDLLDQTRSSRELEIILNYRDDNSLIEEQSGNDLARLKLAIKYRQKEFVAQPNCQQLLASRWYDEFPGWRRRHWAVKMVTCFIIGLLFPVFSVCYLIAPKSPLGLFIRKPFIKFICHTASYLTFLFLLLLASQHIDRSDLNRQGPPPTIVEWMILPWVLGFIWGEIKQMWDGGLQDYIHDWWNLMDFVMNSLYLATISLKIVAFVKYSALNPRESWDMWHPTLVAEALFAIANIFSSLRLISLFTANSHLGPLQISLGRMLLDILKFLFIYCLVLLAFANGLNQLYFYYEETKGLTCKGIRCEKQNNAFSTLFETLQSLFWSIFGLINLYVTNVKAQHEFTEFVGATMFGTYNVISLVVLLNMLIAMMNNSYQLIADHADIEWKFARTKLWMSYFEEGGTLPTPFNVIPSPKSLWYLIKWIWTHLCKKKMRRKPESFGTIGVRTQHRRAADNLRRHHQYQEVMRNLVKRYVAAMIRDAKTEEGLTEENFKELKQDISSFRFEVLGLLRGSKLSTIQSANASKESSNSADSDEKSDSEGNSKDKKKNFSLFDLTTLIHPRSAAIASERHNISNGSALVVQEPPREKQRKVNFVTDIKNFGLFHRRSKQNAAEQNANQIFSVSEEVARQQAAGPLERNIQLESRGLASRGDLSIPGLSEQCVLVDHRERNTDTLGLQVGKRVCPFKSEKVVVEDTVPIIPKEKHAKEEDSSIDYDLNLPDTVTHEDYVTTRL
Test Method Notes: TRPC4 activity assay (FLIPR calcium fluorescence, Englerin A stimulation)
Test Settings: HEK-TREx hTRPC4 cells, 100 nM Englerin A stimulation; read-out: TRPC4 (IC50 class)
Quantity Name: IC50

Nc1nc2c(c(Oc3ccccc3Cl)n1)CCN(c1cn[nH]c(=O)c1Cl)C2 [Compound 113] on UniProtKB Q9UBN4 gives IC50 = 50 to 500 nM

N#Cc1cccc(Oc2ncnc3c2CCN(c2cn[nH]c(=O)c2Cl)C3)c1Cl [Compound 108] on UniProtKB Q9UBN4 gives IC50 = 500 to 1000 nM

O=c1[nH]ncc(N2CCc3c(ncnc3Oc3cc(F)ccc3C(F)(F)F)C2)c1Cl [Compound 106] on UniProtKB Q9UBN4 gives IC50 = 50 to 500 nM

O=c1[nH]ncc(N2CCc3c(ncnc3Oc3ccc(F)cc3Cl)C2)c1Cl [Compound 104] on UniProtKB Q9UBN4 gives IC50 = < 50 nM

Nc1nc2c(c(Oc3ccccc3C(F)(F)F)n1)CCN(c1cn[nH]c(=O)c1Cl)C2 [Compound 102] on UniProtKB Q9UBN4 gives IC50 = < 50 nM

O=c1[nH]ncc(N2CCc3c(ncnc3Oc3cnccc3C(F)(F)F)C2)c1Cl [Compound 107] on UniProtKB Q9UBN4 gives IC50 = 50 to 500 nM

Nc1nc2c(c(Oc3ccc(F)cc3Cl)n1)CCN(c1cn[nH]c(=O)c1Cl)C2 [Compound 112] on UniProtKB Q9UBN4 gives IC50 = 50 to 500 nM

C[C@@H](O)c1nc2c(c(Oc3ccc(F)cc3Cl)n1)CCN(c1cn[nH]c(=O)c1Cl)C2 [Compound 119] on UniProtKB Q9UBN4 gives IC50 = < 50 nM

O=c1[nH]ncc(N2CCc3c(ncnc3Oc3ccc(F)cc3C(F)F)C2)c1Cl [Compound 105] on UniProtKB Q9UBN4 gives IC50 = < 50 nM

O=c1[nH]ncc(N2CCc3c(ncnc3Oc3ccccc3C(F)F)C2)c1Cl [Compound 103] on UniProtKB Q9UBN4 gives IC50 = < 50 nM

O=c1[nH]ncc(N2CCc3c(ncnc3Oc3ccccc3Cl)C2)c1Cl [Compound 101] on UniProtKB Q9UBN4 gives IC50 = < 50 nM

---

System: TRPC5 (Homo sapiens)
Sequence (Q9UL62 whole entry): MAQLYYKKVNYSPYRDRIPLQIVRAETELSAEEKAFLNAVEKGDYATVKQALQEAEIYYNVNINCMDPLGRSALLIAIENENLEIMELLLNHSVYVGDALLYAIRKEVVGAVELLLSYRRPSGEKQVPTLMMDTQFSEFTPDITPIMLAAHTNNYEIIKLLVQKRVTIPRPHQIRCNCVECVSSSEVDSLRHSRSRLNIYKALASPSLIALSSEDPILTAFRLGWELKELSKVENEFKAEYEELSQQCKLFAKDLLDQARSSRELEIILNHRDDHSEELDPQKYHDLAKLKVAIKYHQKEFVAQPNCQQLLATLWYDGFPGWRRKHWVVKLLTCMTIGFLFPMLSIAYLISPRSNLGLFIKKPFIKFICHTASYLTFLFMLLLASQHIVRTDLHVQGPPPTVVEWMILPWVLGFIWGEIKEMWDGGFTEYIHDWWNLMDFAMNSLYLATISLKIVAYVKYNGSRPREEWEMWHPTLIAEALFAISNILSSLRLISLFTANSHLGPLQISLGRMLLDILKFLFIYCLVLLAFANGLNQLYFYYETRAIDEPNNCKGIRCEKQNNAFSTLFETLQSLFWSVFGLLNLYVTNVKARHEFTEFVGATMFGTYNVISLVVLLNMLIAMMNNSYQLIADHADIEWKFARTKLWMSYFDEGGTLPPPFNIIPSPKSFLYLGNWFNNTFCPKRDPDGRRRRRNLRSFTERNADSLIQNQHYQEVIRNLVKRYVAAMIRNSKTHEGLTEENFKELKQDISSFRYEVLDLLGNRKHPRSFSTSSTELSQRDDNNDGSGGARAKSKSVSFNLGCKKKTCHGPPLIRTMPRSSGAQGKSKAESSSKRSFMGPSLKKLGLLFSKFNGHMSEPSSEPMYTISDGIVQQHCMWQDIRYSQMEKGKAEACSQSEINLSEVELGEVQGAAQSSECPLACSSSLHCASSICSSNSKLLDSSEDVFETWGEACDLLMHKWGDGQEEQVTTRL
Test Method Notes: TRPC5 activity assay (FLIPR calcium fluorescence, Riluzole stimulation)
Test Settings: HEK-TREx hTRPC5 cells, 30 μM Riluzole stimulation; read-out: TRPC5 (IC50 class)
pIC50: −log10 of the molar value.
Hi there, I'd appreciate the recorded pIC50 for every entry that follows.

Notebook: CC1Cc2c(ncnc2Oc2ccc(F)cc2Cl)CN1c1cn[nH]c(=O)c1Cl (single isomer, unassigned) [Compound 117a] , pIC50 read as < 6.00

Notebook: CC(O)c1nc2c(c(Oc3ccc(F)cc3C(F)(F)F)n1)CCN(c1cn[nH]c(=O)c1Cl)C2 (single isomer, unassigned) [Compound 129] , pIC50 read as > 7.30

Notebook: CC(c1ccc(F)cc1C(F)(F)F)c1ncnc2c1CCN(c1cn[nH]c(=O)c1Cl)C2 (single isomer, unassigned) [Compound 126] , pIC50 read as > 7.30

Notebook: CC(c1ccc(F)cc1C(F)(F)F)c1ncnc2c1CCN(c1cn[nH]c(=O)c1Cl)C2 (single isomer, unassigned) [Compound 126a] , pIC50 read as 6.30 to 7.30

Notebook: O=c1[nH]ncc(N2CCc3c(nc([C@H](O)CO)nc3Oc3ccc(F)cc3C(F)(F)F)C2)c1Cl (single isomer, unassigned) , pIC50 read as > 7.30

Notebook: `O=c1[nH]ncc(N2CCc3c(ncnc3Oc3ccc(F)cc3Cl)C2)c1Cl` , pIC50 read as > 7.30

Notebook: O=c1[nH]ncc(N2CCc3c(nc([C@@H](O)CO)nc3Oc3ccc(F)cc3C(F)(F)F)C2)c1Cl (single isomer, unassigned) , pIC50 read as > 7.30

Notebook: CC(O)c1nc2c(c(Oc3ccc(F)cc3C(F)(F)F)n1)CCN(c1cn[nH]c(=O)c1Cl)C2 (single isomer, unassigned) [Compound 130] , pIC50 read as > 7.30

Notebook: CC1Cc2c(ncnc2Oc2ccc(F)cc2Cl)CN1c1cn[nH]c(=O)c1Cl (single isomer, unassigned) [Compound 117] , pIC50 read as > 7.30
